- Assay remarks: Pharmacokinetic evaluation of liquid bevirimat dosage forms, oral gavage, male Cynomolgus monkeys
- Condition parameters: male, cynomolgus monkey, in vivo, po, 50 mg/monkey, Plasma Concentration, PG/glycerin/Vitamin ETPGS/Tween80/Plasdone C15 formulation; 2.0 hr; individual monkey
Property measured: concentration at 2 h (µg/mL)

>>> observed_result("C=C(C)[C@@H]1CC[C@]2(C(=O)O)CC[C@]3(C)[C@H](CC[C@@H]4[C@@]5(C)CC[C@H](OC(=O)CC(C)(C)C(=O)O)C(C)(C)[C@@H]5CC[C@]43C)[C@@H]12 [Bevirimat]")
52.7

----------
- Assay remarks: Pharmacokinetic evaluation of liquid bevirimat dosage forms, oral gavage, male Cynomolgus monkeys
- Condition parameters: male, cynomolgus monkey, in vivo, po, 50 mg/monkey, Plasma Concentration, PG/glycerin/Vitamin ETPGS/ethanol formulation; 0.25 hr; individual monkey
Property measured: concentration at 0.25 h

>>> observed_result("C=C(C)[C@@H]1CC[C@]2(C(=O)O)CC[C@]3(C)[C@H](CC[C@@H]4[C@@]5(C)CC[C@H](OC(=O)CC(C)(C)C(=O)O)C(C)(C)[C@@H]5CC[C@]43C)[C@@H]12")
"78.4 ng/mL"

----------
- Assay remarks: Pharmacokinetic evaluation of liquid bevirimat dosage forms, oral gavage, male Cynomolgus monkeys
- Condition parameters: male, cynomolgus monkey, in vivo, po, 50 mg FAE/monkey, Plasma concentration, 4.0 hr; 12.5 mg FAE/mL in 10% HPβCD, 50 mg FAE/monkey oral gavage; monkeys 186,116,120,AVG
Property measured: concentration at 4 hr (ng/mL)

>>> observed_result("C=C(C)[C@@H]1CC[C@]2(C(=O)O)CC[C@]3(C)[C@H](CC[C@@H]4[C@@]5(C)CC[C@H](OC(=O)CC(C)(C)C(=O)O)C(C)(C)[C@@H]5CC[C@]43C)[C@@H]12")
35000

----------
- Assay remarks: Pharmacokinetic evaluation of liquid bevirimat dosage forms, oral gavage, male Cynomolgus monkeys
- Condition parameters: male, cynomolgus monkey, in vivo, po, 50 mg FAE, Plasma concentration, 4.0 hr; 12.5 mg FAE/mL in 15% Ethanol, 30% PG, 10% Glycerin, 50 mg FAE oral gavage; monkeys 117,118,119,AVG
Property measured: concentration at 4 hr (ng/mL)

>>> observed_result("C=C(C)[C@@H]1CC[C@]2(C(=O)O)CC[C@]3(C)[C@H](CC[C@@H]4[C@@]5(C)CC[C@H](OC(=O)CC(C)(C)C(=O)O)C(C)(C)[C@@H]5CC[C@]43C)[C@@H]12")
46000

----------
- Assay remarks: Pharmacokinetic evaluation of liquid bevirimat dosage forms, oral gavage, male Cynomolgus monkeys
- Condition parameters: male, cynomolgus monkey, in vivo, po, 50 mg FAE/monkey, Plasma concentration, 2.0 hr; 50 mg FAE/mL in 40% PG:20% Glycerin:1% TPGS:5% Tween 80 in SWFI, 50 mg FAE/monkey oral gavage; monkeys 117,118,119,AVG
Property measured: concentration at 2 hr (ng/mL)

>>> observed_result("C=C(C)[C@@H]1CC[C@]2(C(=O)O)CC[C@]3(C)[C@H](CC[C@@H]4[C@@]5(C)CC[C@H](OC(=O)CC(C)(C)C(=O)O)C(C)(C)[C@@H]5CC[C@]43C)[C@@H]12")
17900

----------
- Assay remarks: Pharmacokinetic evaluation of liquid bevirimat dosage forms, oral gavage, male Cynomolgus monkeys
- Condition parameters: male, cynomolgus monkey, in vivo, po, 50 mg FAE/monkey, Plasma concentration, 0.25 hr; 25 mg/mL in 30% EtOH:1% TPGS:30% PG:10% Glycerin, 50 mg FAE/monkey oral gavage; monkeys 117,118,119,AVG; BLOQ=below 50 ng/mL
Property measured: concentration at 0.25 hr (ng/mL)

>>> observed_result("C=C(C)[C@@H]1CC[C@]2(C(=O)O)CC[C@]3(C)[C@H](CC[C@@H]4[C@@]5(C)CC[C@H](OC(=O)CC(C)(C)C(=O)O)C(C)(C)[C@@H]5CC[C@]43C)[C@@H]12")
147
